- Assay details: Drug excretion in bile duct-cannulated cynomolgus monkey bile treated with [14C]brivanib alaninate at 10 mg/kg, po administered as single dose via gavage by HPLC analysis
- Type: ADME, organism-based, Macaca fascicularis
- Assay context: in vivo
Experimental endpoint: Compound recovery (%)
Kindly answer with a numeric value in %, unit omitted.

Input line: Return the recorded Compound recovery value; entry: Cc1c(OS(=O)(=O)O)cn2ncnc(Oc3ccc4[nH]c(C(=O)O)cc4c3F)c12
Output line: 1.4

Input line: Let me know recorded Compound recovery for Cc1cc2c(F)c(Oc3ncnn4cc(OC[C@@H](C)O[C@@H]5O[C@H](C(=O)O)[C@@H](O)[C@H](O)[C@H]5O)c(C)c34)ccc2[nH]1 , thanks.
Output line: 0.6

Input line: Identify measured Compound recovery corresponding to Cc1c(OS(=O)(=O)O)cn2ncnc(Oc3ccc4[nH]c(CO)cc4c3F)c12
Output line: 0.4

Input line: # return recorded Compound recovery for input Cc1cc2c(F)c(Oc3ncnn4cc(OC[C@@H](C)OS(=O)(=O)O)c(C)c34)ccc2[nH]1
Output line: 15.2

Input line: Provide Compound recovery value for the following compound: Cc1c(OC[C@@H](C)OS(=O)(=O)O)cn2ncnc(Oc3ccc4[nH]c(CO)cc4c3F)c12
Output line: 10.3

Input line: Indicate its recorded Compound recovery; the compound in question is Cc1c(OC[C@@H](C)O)cn2ncnc(Oc3ccc4[nH]c(C(=O)O)cc4c3F)c12
Output line: 10.5

Input line: Fill in reported Compound recovery for this entry: Cc1cc2c(F)c(Oc3ncnn4cc(O)c(C)c34)ccc2[nH]1
Output line: 0.4

Input line: Input Cc1c(OC[C@@H](C)OS(=O)(=O)O)cn2ncnc(Oc3ccc4[nH]c(C(=O)O)cc4c3F)c12 , output reported Compound recovery.
Output line: 4.9

Input line: Check the records and state Compound recovery for Cc1cc2c(F)c(Oc3ncnn4cc(OS(=O)(=O)O)c(C)c34)ccc2[nH]1
Output line: 1.9

Entry source: ChEMBL document CHEMBL3526109
